Provenance of the data: PubChem BioAssay AID435022

Test: inhibitors of PMA/ionomycin-induced NF-kB reporter, 697 cells, primary screen, B-cell NF-kB inhibitor project, cell-based, luminescence, uHTS (AID 435022)
Settings: 697 B-cell NF-kB luciferase reporter, 16 h, at 4 µM, hits give high values
The whole screen tested about 330,000 compounds, of which about 1,100 (0.33%) were called active. The sample as a whole holds a higher share of actives than the screen did.
READOUT_TYPE: inhibition (%)

1) COC(=O)/C(C#N)=C/c1occc1C = 5.66
2) COc1ccc(CNc2nc(NCc3ccc(OC)cc3)c3ncn(C4CCCC4)c3n2)cc1 = -55.3
3) CCN1C(=O)[C@H]2[C@@H](c3ccc(C)cc3)N3C(=O)N(c4cccc(Br)c4)C(=O)[C@@]3(CC)[C@H]2C1=O = -2.44
4) Cc1ccc(C)c(NC(=O)CN(C)C(=O)COc2ccc3ccccc3c2)c1 = 1.04
5) CN1CC(c2ccccc2)C2(COc3ccccc3C2=O)C12C(=O)Nc1ccccc12 (stereo not drawn) = 11.7
6) CC(C)(C)c1cnnn1-c1ccc([N+](=O)[O-])cc1 = 12.8
7) O=C(C1CCC1)N1CCc2cc(S(=O)(=O)NCc3cccnc3)ccc21 = -30.3
8) C=CCSc1nc(N)cc(=O)[nH]1 = 36.8
9) CC(=O)Nc1ccc(C(=O)CSc2nnc(Cc3ccccc3)o2)cc1 = 8.22
10) CCOc1ccc(NC(=O)CN(C)C(=O)c2cccc(S(=O)(=O)N3CCCC3)c2)cc1OCC = 10.1
11) CCN(CCCNC(=O)CSc1cc(=O)n(C)c2cc(Cl)ccc12)Cc1ccccc1 = 2.99
12) Cn1c(=O)cc(SCC(=O)N2CCCC2)c2cc(Cl)ccc21 = 52.4
13) O=C(CSc1nc(-c2ccccc2)cs1)Nc1cccc([N+](=O)[O-])c1 = 1.61
14) CN(CC(=O)NCc1ccncc1)S(=O)(=O)c1ccc(Br)cc1 = 12.7
15) CC(=O)c1cnc(SCC(=O)O)nc1C = 10
16) Cc1cnc(C(=O)Oc2cccc(Cl)c2Cl)cn1 = 9.86
17) Cn1c(=O)cc(SCC(=O)N2CCN(C(=O)c3ccco3)CC2)c2ccccc21 = -1.63
18) Cc1cc(C(=O)CSc2nc(N)cc(=O)[nH]2)c(C)n1-c1cccc(F)c1 = -32.2
19) CCCCn1c(N)c(N(CCC(C)C)C(=O)COC(=O)c2ccc(CC)cc2)c(=O)[nH]c1=O = -5.34
20) CC1CCN(S(=O)(=O)c2ccc3c(c2)n(C)c(=O)n3C)CC1 = 7.77
21) Cc1ccc(NC(=O)CSc2nnc(CNC(=O)c3ccccc3F)o2)cc1 = 0.808
22) O=C(CS(=O)(=O)Cc1ccccc1)Nc1cccnc1 = -24.8
23) Cc1nc(Cl)c(C#N)c2c1CCCC2 = 22.3

* * *

We begin with a simple list: items and their reported inhibition.
Assay: inhibitors of PMA/ionomycin-induced NF-kB reporter, 697 cells, primary screen, B-cell NF-kB inhibitor project, cell-based, luminescence, uHTS (AID 435022)
Settings: 697 B-cell NF-kB luciferase reporter, 16 h, at 4 µM, hits give high values
Among all 330,000 compounds or so, about 1,100 (0.33%) were called active. What follows is part of a selection rich in actives, with near analogues and random picks from the rest.
READOUT_TYPE: inhibition (%)

1) Cc1ccccc1-c1cc(C(=O)NCc2cccs2)n(CC2CC(c3cccnc3)=NO2)n1 (stereo not drawn) = -9.9
2) CCOC(=O)N1CCN(S(=O)(=O)c2ccc(-n3cnnn3)cc2)CC1 = -11.9
3) Cc1oc2c(C)c3oc(=O)c(CC(=O)N[C@@H](CC(C)C)C(=O)N[C@@H](Cc4ccccc4)C(=O)O)c(C)c3cc2c1C = 22.3
